Each entry below carries its recorded drug sensitivity score.
Test system: HOSE1C
Assay: drug sensitivity score (DSS) from 5-point dose-response viability curve (DSS (area-under-curve based score)); higher = more sensitive (stronger growth inhibition or killing); extreme values may be limits of the assay
Settings: exposure time: 72 h; concentration range: 5 concentrations over 10,000-fold range
quantity.kind: drug sensitivity score

| compound | assayed.system | number |
| --- | --- | --- |
| C=CC[C@@H]1/C=C(\C)C[C@H](C)C[C@H](OC)[C@H]2O[C@@](O)(C(=O)C(=O)N3CCCC[C@H]3C(=O)O[C@H](/C(C)=C/[C@@H]3CC[C@@H](O)[C@H](OC)C3)[C@H](C)[C@@H](O)CC1=O)[C@H](C)C[C@@H]2OC [Tacrolimus] | HOSE1C | 0.3 |
| Clc1ccc(C(c2ccccc2Cl)C(Cl)Cl)cc1 (stereo not drawn) [Mitotane] | HOSE1C | 0 |
| O=C(c1ccc(OCCN2CCCCC2)cc1)c1c(-c2ccc(O)cc2)sc2cc(O)ccc12 [Raloxifene] | HOSE1C | 0 |

* * *

Tested on: CAOV3
Experiment: drug sensitivity score (DSS) from 5-point dose-response viability curve (DSS (area-under-curve based score)); higher = more sensitive (stronger growth inhibition or killing); extreme values may be limits of the assay
Details: exposure time: 72 h; concentration range: 5 concentrations over 10,000-fold range

| compound | drug sensitivity score |
| --- | --- |
| CC(=O)OC[C@H]1O[C@@H]([S-])[C@H](OC(C)=O)[C@@H](OC(C)=O)[C@@H]1OC(C)=O.CCP(CC)CC.[Au+] | 9.3 |
| N#CC1(c2ccc(NC(=O)c3cccnc3NCc3ccncc3)cc2)CCCC1 | 0 |
| Cn1cncc1[C@@](N)(c1ccc(Cl)cc1)c1ccc2c(c1)c(-c1cccc(Cl)c1)cc(=O)n2C | 3.1 |
| CCN(CC)CCNC(=O)c1c(C)[nH]c(/C=C2\C(=O)Nc3ccc(-c4csc(-c5ccccc5)n4)cc32)c1C | 0 |
| COc1cccc(OCCCN)c1-c1cc(Nc2cnc(C#N)cn2)n[nH]1 | 24.8 |
| Nc1ccccc1NC(=O)c1ccc(CNC(=O)OCc2cccnc2)cc1 | 5.5 |
| Cc1c(-c2c(-c3ccc(F)o3)sc3ncnc(O[C@H](Cc4ccccc4OCc4ccnn4CC(F)(F)F)C(=O)O)c23)ccc(OCCN2CCN(C)CC2)c1Cl | 0 |
| O=C(/C=C/c1cccc(S(=O)(=O)Nc2ccccc2)c1)NO | 13.6 |
| Cn1cc(CNCC2CCN(c3ncc(C(=O)NO)cn3)CC2)c2ccccc21 | 11.5 |
| CC1(C)C(C(=O)Nc2ccc(S(=O)(=O)c3ccc(NC(=O)C4C(C)(C)C4(C)C)cc3)cc2)C1(C)C | 0.3 |
| COc1ccccc1S(=O)(=O)Nc1ccc2c(c1)CN(C)C(=O)N2 | 7.2 |
| CCCCc1nc2cc(/C=C/C(=O)NO)ccc2n1CCN(CC)CC | 13.2 |
| CC(C)(C)c1nc(-c2cccc(NS(=O)(=O)c3c(F)cccc3F)c2F)c(-c2ccnc(N)n2)s1 | 0 |
| CNC(=O)c1cc(COc2nnc(Nc3ccc(Cl)cc3)c3ccoc23)ccn1 | 0 |
| CC1(C)CCC(CN2CCN(c3ccc(C(=O)NS(=O)(=O)c4ccc(NCC5CCOCC5)c([N+](=O)[O-])c4)c(Oc4cnc5[nH]ccc5c4)c3)CC2)=C(c2ccc(Cl)cc2)C1 | 0 |
| O[C@H]1CC[C@H](Nc2ncc3nc(Nc4c(F)cc(F)cc4F)n([C@H]4CCOC4)c3n2)CC1 | 0 |
| COc1cccc2c1C(=O)c1c(O)c3c(c(O)c1C2=O)C[C@@](O)(C(=O)CO)C[C@@H]3O[C@H]1C[C@H](N)[C@@H](O)[C@H](C)O1 [Epirubicin] | 9.9 |
| N#CCNC(=O)c1ccc(-c2ccnc(Nc3ccc(N4CCOCC4)cc3)n2)cc1 | 0.9 |
| COc1ncc(-c2ccc3nccc(-c4ccnnc4)c3c2)cc1NS(=O)(=O)c1ccc(F)cc1F | 16.9 |
| Cn1cc(C2=C(c3cn(C4CCN(Cc5ccccn5)CC4)c4ccccc34)C(=O)NC2=O)c2ccccc21 | 0 |
| CC(C)C[C@H](NC(=O)[C@H](Cc1ccccc1)NC(=O)c1cnccn1)B(O)O | 26.4 |
| CC(C)(O)CNc1nc(Nc2ccnc(C(F)(F)F)c2)nc(-c2cccc(C(F)(F)F)n2)n1 | 0 |
| Nc1cc(C(F)(F)F)c(-c2cc(N3CCOCC3)nc(N3CCOCC3)n2)cn1 | 8.7 |
| COc1ccc(-c2nc(N3CCOCC3)c3sc(CN(C)c4ncc(C(=O)NO)cn4)cc3n2)cn1 | 31.3 |
| C/C=C1\NC(=O)[C@H]2CSSCC/C=C/[C@H](CC(=O)N[C@H](C(C)C)C(=O)N2)OC(=O)[C@H](C(C)C)NC1=O | 28.2 |
| C=CC(=O)Nc1cc(Nc2nccc(-c3cn(C)c4ccccc34)n2)c(OC)cc1N(C)CCN(C)C | 5.4 |
| CNC(=O)c1ccccc1Nc1nc(Nc2ccc3c(c2OC)CCC[C@H](N2CCN(CCO)CC2)C3)ncc1Cl | 8.2 |
| Cc1cn(-c2cc(NC(=O)c3ccc(C)c(Nc4nccc(-c5cnccn5)n4)c3)cc(C(F)(F)F)c2)cn1 | 0 |
| Cn1c(Nc2ccc(C(F)(F)F)cc2)nc2cc(Oc3ccnc(-c4ncc(C(F)(F)F)[nH]4)c3)ccc21 | 2.2 |
| COc1cccc2c1C(=O)c1c(O)c3c(c(O)c1C2=O)C[C@@](O)(C(C)=O)C[C@@H]3O[C@H]1C[C@H](N)[C@H](O)[C@H](C)O1 | 9.4 |
